All figures here come from patent US7048907B2.

Measurement description: Assay of chelate on carboxymethyl (CM) Sephadex column (chelate formation, charge)
Format: physicochemical
Assay context: Fraction 4: column and contents (retained)
# maps each entry to its dpm
Property measured: dpm (dpm)

{"columns": ["Compound", "Reported value"],
 "data": [
  ["O=C([O-])CN(CCN(CC(=O)[O-])CC(=O)[O-])CCN(CC(=O)[O-])CC(=O)[O-].[La+3]", 0],
  ["O=C([O-])CN(CCN(CC(=O)[O-])CC(=O)[O-])CCN(CC(=O)[O-])CC(=O)[O-].[Eu+3]", 0],
  ["O=C([O-])CN(CCN(CC(=O)[O-])CC(=O)[O-])CCN(CC(=O)[O-])CC(=O)[O-].[Sm+3]", 24257],
  ["[Cl][Eu]([Cl])[Cl] [Europium chloride, reference compound]", 21244]
]}

###

Measurement description: Assay of chelate on carboxymethyl (CM) Sephadex column (chelate formation, charge)
Assay type: physicochemical
Assay context: Fraction 3: further 3 ml 0.01M Tris pH 7.5
# maps each entry to its dpm

{"columns": ["Molecule", "dpm / dpm"],
 "data": [
  ["[Cl][La]([Cl])[Cl] [Lanthanum chloride, reference compound]", 0],
  ["O=C([O-])CN(CCN(CC(=O)[O-])CC(=O)[O-])CCN(CC(=O)[O-])CC(=O)[O-].[Eu+3] [Eu-DTPA]", 0],
  ["[Cl][Sm]([Cl])[Cl] [Samarium chloride, reference compound]", 0],
  ["O=C([O-])CN(CCN(CC(=O)[O-])CC(=O)[O-])CCN(CC(=O)[O-])CC(=O)[O-].[La+3] [La-DTPA]", 0],
  ["O=C([O-])CN(CCN(CC(=O)[O-])CC(=O)[O-])CCN(CC(=O)[O-])CC(=O)[O-].[Sm+3] [Sm-DTPA]", 19089],
  ["[Cl][Eu]([Cl])[Cl] [Europium chloride, reference compound]", 0]
]}

###

# maps each entry to its % of total
Measurement description: Stability of chelates in rat serum (CM-Sephadex assay, serum binding)
Assay context: 24 hours in rat serum at room temperature; Fraction 2: 3 ml 0.01M Tris pH 7.5

{"columns": ["Molecule", "% of total"],
 "data": [
  ["[Cl][Sm]([Cl])[Cl] [Samarium chloride, reference compound]", "3 % of total"],
  ["[Cl][Eu]([Cl])[Cl] [Europium chloride, reference compound]", "5 % of total"],
  ["O=C([O-])CN(CCN(CC(=O)[O-])CC(=O)[O-])CCN(CC(=O)[O-])CC(=O)[O-].[Eu+3] [Eu-DTPA]", "9 % of total"],
  ["O=C([O-])CN(CCN(CC(=O)[O-])CC(=O)[O-])CCN(CC(=O)[O-])CC(=O)[O-].[La+3] [La-DTPA]", "7 % of total"],
  ["[Cl][La]([Cl])[Cl] [Lanthanum chloride, reference compound]", "6 % of total"]
]}

###

# maps each entry to its dpm
Measurement description: Stability of chelates in rat serum (CM-Sephadex assay, serum binding)
Assay context: 24 hours in rat serum at room temperature; Fraction 2: 3 ml 0.01M Tris pH 7.5

{"columns": ["Compound", "dpm / dpm"],
 "data": [
  ["O=C([O-])CN(CCN(CC(=O)[O-])CC(=O)[O-])CCN(CC(=O)[O-])CC(=O)[O-].[Eu+3] [Eu-DTPA]", 499],
  ["[Cl][La]([Cl])[Cl] [Lanthanum chloride, reference compound]", 6586],
  ["[Cl][Sm]([Cl])[Cl] [Samarium chloride, reference compound]", 5702],
  ["[Cl][Eu]([Cl])[Cl] [Europium chloride, reference compound]", 291],
  ["O=C([O-])CN(CCN(CC(=O)[O-])CC(=O)[O-])CCN(CC(=O)[O-])CC(=O)[O-].[La+3] [La-DTPA]", 6167]
]}
